Data provenance: patent US11078228B2

# target: recombinant CD73 (Homo sapiens (Human), UniProt P21589)
# Sequence (P21589 27-547): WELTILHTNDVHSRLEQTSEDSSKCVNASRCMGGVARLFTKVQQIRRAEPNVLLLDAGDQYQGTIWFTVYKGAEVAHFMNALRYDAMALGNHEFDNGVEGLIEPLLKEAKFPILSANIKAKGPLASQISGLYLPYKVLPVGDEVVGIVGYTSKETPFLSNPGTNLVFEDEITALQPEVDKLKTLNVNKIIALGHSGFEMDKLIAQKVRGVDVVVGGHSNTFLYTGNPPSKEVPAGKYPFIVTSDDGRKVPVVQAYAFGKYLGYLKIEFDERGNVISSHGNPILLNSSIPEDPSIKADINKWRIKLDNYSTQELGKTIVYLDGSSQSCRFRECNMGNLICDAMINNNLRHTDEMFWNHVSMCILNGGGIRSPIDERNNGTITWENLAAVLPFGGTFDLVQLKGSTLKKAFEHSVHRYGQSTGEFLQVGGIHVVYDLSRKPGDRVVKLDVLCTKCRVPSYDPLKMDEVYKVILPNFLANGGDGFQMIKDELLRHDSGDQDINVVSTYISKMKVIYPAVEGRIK
# protocol-notes: Assay 2: Inhibition of the CD73 enzyme in vitro (0.05 nM CD73, 1 hour 37° C., Malachite Green)
# Type: biochemical
# condition-set: 0.05 nM CD73, 50 μM AMP, 1 hour at 37° C.
Known IC50 of a selection of compounds
Express your answer in nM, writing the number without its unit.

1) C#C[C@@]1(O)[C@@H](COC(Cc2ccncc2)(C(=O)O)C(=O)O)O[C@@H](n2cnc3c(N)nc(Cl)nc32)[C@@H]1O [Compound 7]; 8
2) C#C[C@@]1(O)[C@@H](COC(Cc2ccccc2)(C(=O)O)C(=O)OCC)O[C@@H](n2cnc3c(N)nc(C(N)=O)nc32)[C@@H]1O (stereo partly drawn) [Example 121]; 1710

Please examine the following record next.
Q: Request the reported IC50 associated with C#C[C@@]1(O)[C@@H](COC(Cc2ccccc2)(C(=O)O)C(=O)O)O[C@@H](n2cnc3c(NCc4cccc(F)c4)nc(Cl)nc32)[C@@H]1O [Example 85]
Result: 2

* * *

# target: recombinant CD73 (Homo sapiens (Human), UniProt P21589)
# protocol-notes: Assay 2: Inhibition of the CD73 enzyme in vitro (0.05 nM CD73, 1 hour 37° C., Malachite Green)
# Format: biochemical
# condition-set: 0.05 nM CD73, 50 μM AMP, 1 hour at 37° C.
readout-name: IC50 (nM)
Use nM as the unit, but write only the number.

Solved entries (count: 5):
1. C#C[C@@]1(O)[C@@H](COC(Cc2ccccc2)(C(=O)O)C(=O)OCC)O[C@@H](n2cnc3c(NCc4ccccc4Cl)nc(Cl)nc32)[C@@H]1O (some centres unmarked) [Example 108]; 3
2. C#C[C@@]1(O)[C@@H](COC(CC=C)(C(=O)O)C(=O)O)O[C@@H](n2cnc3c(N)nc(Cl)nc32)[C@@H]1O [Example 15]; 20
3. C#C[C@@]1(O)[C@@H](COC(Cc2ccccc2)(C(=O)O)C(=O)O)O[C@@H](n2cnc3c(NCC(C)(C)O)nc(Cl)nc32)[C@@H]1O [Example 94]; 5
4. C#C[C@@]1(O)[C@@H](CO[C@](Cc2ccccc2)(C(=O)O)c2cscn2)O[C@@H](n2cnc3c(NC(C)C)nc(Cl)nc32)[C@@H]1O (single isomer, unassigned) [Example 170]; 8
5. C#C[C@@]1(O)[C@@H](COC(Cc2ccc(N3CCCN(C)C3=O)cc2)(C(=O)O)C(=O)O)O[C@@H](n2cnc3c(NC(C)C)nc(Cl)nc32)[C@@H]1O [Example 151]; 0.25

Q: I have this compound here, C#C[C@@]1(O)[C@@H](COC(Cc2ccccc2)(C(=O)O)C(=O)O)O[C@@H](n2cnc3c(NC)nc(Cl)nc32)[C@@H]1O [Example 71] , and I need its recorded IC50.
Result: 6

* * *

# target: recombinant CD73 (Homo sapiens (Human))
# protocol-notes: Assay 2: Inhibition of the CD73 enzyme in vitro (0.05 nM CD73, 1 hour 37° C., Malachite Green)
# Type: biochemical
# condition-set: 0.05 nM CD73, 50 μM AMP, 1 hour at 37° C.
readout-name: IC50

Solved cases (2 shown):
1. C#C[C@@]1(O)[C@@H](COC(Cc2ccccc2)(C(=O)O)C(=O)O)O[C@@H](n2cnc3c(N[C@H]4CCc5ccccc54)nc(Cl)nc32)[C@@H]1O; 3 nM
2. C#C[C@@]1(O)[C@@H](COC(Cc2ccccc2)(C(=O)O)C(=O)O)O[C@@H](n2cnc3c(-c4ccccc4)nc(Cl)nc32)[C@@H]1O; 0.6 nM

We now examine a further compound.
Q: Name the reported IC50 value associated with the compound `C#C[C@@]1(O)[C@@H](COC(Cc2ccccc2)(C(=O)O)C(=O)O)O[C@@H](n2cnc3c(N4CCOCC4)nc(Cl)nc32)[C@@H]1O`
Result: 4 nM

* * *

# Test system: Human CD8+ T cells
# protocol-notes: Reversal of AMP-mediated suppression of CD8+ T cells
# Format: cell-based
# condition-set: T-cell, 96 h, 10 μM AMP, 4 days, ELISA, read-out: EC50 for Granzyme B production
# Experimental: Human CD8+ T cells were labeled with CellTrace CFSE and then pre-incubated with an adenosine deaminase inhibitor and Compound 9 or vehicle for 20 minutes. 20 μM AMP was added for assessing T cell proliferation and CD25 expression. 10 μM AMP was added for assessing cytokine production. […] After 4 days, proliferation and CD25 expression were assessed by flow cytometry and cytokine levels in the supernatant were measured by ELISA. EC50s were determined using a four-parameter dose-response curve equation.
readout-name: EC50 (nM)
Please respond with the number in nM and leave the unit unwritten.

Q: Dear colleague, I am looking for the recorded EC50 of the following compound: `C#C[C@@]1(O)[C@@H](COC(Cc2ccc(N3CCCNC3=O)cc2)(C(=O)O)C(=O)O)O[C@@H](n2cnc3c(N)nc(Cl)nc32)[C@@H]1O`
Result: 5.6

* * *

# pIC50 values compiled below
# target: recombinant CD73 (Homo sapiens (Human))
# protocol-notes: Assay 2: Inhibition of the CD73 enzyme in vitro (0.05 nM CD73, 1 hour 37° C., Malachite Green)
# Format: biochemical
# condition-set: 0.05 nM CD73, 50 μM AMP, 1 hour at 37° C.
// pIC50 is dimensionless: -log10 of concentration (M)

Below, each entry is followed by its recorded pIC50 result.
1) C#C[C@@]1(O)[C@@H](COC(Cc2ccccc2)(C(=O)O)C(=O)O)O[C@@H](n2cnc3c(N(CC)CC)nc(Cl)nc32)[C@@H]1O; 8.52
2) C#C[C@@]1(O)[C@@H](COC(Cc2ccc(-c3ccccc3)c(C(=O)O)c2)(C(=O)O)C(=O)O)O[C@@H](n2cnc3c(N)nc(Cl)nc32)[C@@H]1O; 9.52

Then this compound:
Q: Consider the compound `C=C[C@@]1(O)[C@@H](COC(Cc2ccccc2)(C(=O)O)C(=O)O)O[C@@H](n2cnc3c(N)nc(Cl)nc32)[C@@H]1O` and give its measured pIC50.
Result: 6.99

* * *

# target: recombinant CD73 (Homo sapiens (Human))
# protocol-notes: Assay 2: Inhibition of the CD73 enzyme in vitro (0.05 nM CD73, 1 hour 37° C., Malachite Green)
# Format: biochemical
# condition-set: 0.05 nM CD73, 50 μM AMP, 1 hour at 37° C.
readout-name: pIC50
Scale note: pIC50 = -log10(concentration in M).

Observe how each entry below is paired with its result.
1. C#C[C@@]1(O)[C@@H](COC(Cc2cc(C)on2)(C(=O)O)C(=O)O)O[C@@H](n2cnc3c(NC(C)C)nc(Cl)nc32)[C@@H]1O [Example 110]; 8.52
2. C#C[C@@]1(O)[C@@H](COC(Cc2ccccc2)(C(=O)O)C(=O)O)O[C@@H](n2cnc3c(N(C)C)nc(Cl)nc32)[C@@H]1O [Example 89]; 8.96

Q: Could you share which pIC50 value was measured for C#C[C@@]1(O)[C@@H](COC(Cc2ccccc2)(C(=O)O)C(=O)O)O[C@@H](n2cnc3c(N(CCO)CCO)nc(Cl)nc32)[C@@H]1O [Example 37] ?
Result: 8.22

* * *

# target: recombinant CD73 (Homo sapiens (Human), UniProt P21589)
# protocol-notes: Assay 2: Inhibition of the CD73 enzyme in vitro (0.05 nM CD73, 1 hour 37° C., Malachite Green)
# Format: biochemical
# condition-set: 0.05 nM CD73, 50 μM AMP, 1 hour at 37° C.
Measured IC50, listed per entry for reference.
Kindly answer with a numeric value in nM, unit omitted.

1. C#C[C@@]1(O)[C@@H](COC(Cc2nccs2)(C(=O)O)C(=O)O)O[C@@H](n2cnc3c(N)nc(Cl)nc32)[C@@H]1O; 5

Q: Value lookup for IC50; key = `C#C[C@@]1(O)[C@@H](COC(Cc2ccccc2)(C(=O)O)C(=O)O)O[C@@H](n2cnc3c(N)nc(C(C)=O)nc32)[C@@H]1O`
Result: 170

* * *

# target: recombinant human ENTPD2 (Homo sapiens (Human), UniProt Q9Y5L3)
# Sequence (Q9Y5L3 whole entry): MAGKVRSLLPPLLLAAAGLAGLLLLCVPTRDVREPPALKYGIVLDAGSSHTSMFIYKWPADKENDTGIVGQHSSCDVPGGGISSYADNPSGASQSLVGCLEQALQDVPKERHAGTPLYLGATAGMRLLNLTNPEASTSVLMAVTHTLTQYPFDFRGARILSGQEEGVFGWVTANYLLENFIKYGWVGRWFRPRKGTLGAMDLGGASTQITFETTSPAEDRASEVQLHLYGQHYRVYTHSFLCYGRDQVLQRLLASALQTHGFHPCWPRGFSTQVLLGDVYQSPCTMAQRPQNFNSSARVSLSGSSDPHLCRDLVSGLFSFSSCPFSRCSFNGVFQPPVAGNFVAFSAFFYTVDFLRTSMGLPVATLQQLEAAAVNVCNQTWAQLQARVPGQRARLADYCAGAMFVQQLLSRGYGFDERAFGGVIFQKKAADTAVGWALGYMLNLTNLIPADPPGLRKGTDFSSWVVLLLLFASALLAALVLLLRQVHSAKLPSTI
# protocol-notes: Recombinant human ENTPD2 malachite green assay
pIC50: −log10 of the molar value.
readout-name: pIC50

Q: Can you look up the measured pIC50 of C#C[C@@]1(O)[C@@H](COC(Cc2ccc(N3CCCNC3=O)cc2)(C(=O)O)C(=O)O)O[C@@H](n2cnc3c(N)nc(Cl)nc32)[C@@H]1O [Compound 9] for me?
Result: < 5.00

* * *

# target: recombinant CD73 (Homo sapiens (Human))
# protocol-notes: Assay 2: Inhibition of the CD73 enzyme in vitro (0.05 nM CD73, 1 hour 37° C., Malachite Green)
# Format: biochemical
# condition-set: 0.05 nM CD73, 50 μM AMP, 1 hour at 37° C.
readout-name: IC50 (nM)
I only need the number, in nM, no unit after it.

1. C#C[C@@]1(O)[C@@H](COC(Cc2cncs2)(C(=O)O)C(=O)O)O[C@@H](n2cnc3c(N)nc(Cl)nc32)[C@@H]1O [Example 143]; 13
2. C#C[C@@]1(O)[C@@H](COC(Cc2ccc(-c3cccn(CCO)c3=O)cc2)(C(=O)O)C(=O)O)O[C@@H](n2cnc3c(NC(C)C)nc(Cl)nc32)[C@@H]1O [Example 153]; 0.48
3. C#C[C@@]1(O)[C@@H](COC(Cc2ccc(-c3cccn(CCC)c3=O)cc2)(C(=O)O)C(=O)O)O[C@@H](n2cnc3c(N)nc(Cl)nc32)[C@@H]1O [Example 19]; 0.2
4. CC#C[C@@]1(O)[C@@H](COC(Cc2ccccc2)(C(=O)O)C(=O)O)O[C@@H](n2cnc3c(N)nc(Cl)nc32)[C@@H]1O [Compound 3]; 1

# ---- query compound ----
Q: Using the record for C#C[C@@]1(O)[C@@H](CO[C@@](Cc2ccc(N3CCCNC3=O)cc2)(C(=O)O)C(=O)OCC)O[C@@H](n2cnc3c(N)nc(Cl)nc32)[C@@H]1O (single isomer, unassigned) [Example 165] , report its IC50.
Result: 45
